meta.source: patent US20220119513A1

Reported Kd values follow for various binders
TARGET: T1, TGFβ1 (R&D Systems)
T1 construct: also called TGFB1
T1 sequence (P01137 279-390): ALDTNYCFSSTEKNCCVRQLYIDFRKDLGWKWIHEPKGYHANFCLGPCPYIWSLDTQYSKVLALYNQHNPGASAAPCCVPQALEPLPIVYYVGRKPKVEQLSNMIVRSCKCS
METHOD SUMMARY: single point SPR
Dear colleague, please return just the value in nM, with no unit written.

Kd lookup needed for Can-SL501-VH3 P109A / Can-SL501-VL2 (antibody, V domains shown) VH: EVQLVESGGDLVKPGGSLRLSCVASGFTFSSYGMHWVRQAPGKELEWVAVISYDGSIKYYADAVKGRFTISRDNAKNTLYLQMNSLRAEDTAVYYCARTGEYSGYDTDAQYSWGQGTTVTVSS VL: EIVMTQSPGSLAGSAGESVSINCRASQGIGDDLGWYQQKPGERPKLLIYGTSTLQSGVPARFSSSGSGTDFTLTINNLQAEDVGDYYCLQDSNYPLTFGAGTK , thanks.
1.1

Kd lookup needed for Can-SL501-VH3 S112T / Can-SL501-VL2 (antibody, V domains shown) VH: EVQLVESGGDLVKPGGSLRLSCVASGFTFSSYGMHWVRQAPGKELEWVAVISYDGSIKYYADAVKGRFTISRDNAKNTLYLQMNSLRAEDTAVYYCARTGEYSGYDTDPQYTWGQGTTVTVSS VL: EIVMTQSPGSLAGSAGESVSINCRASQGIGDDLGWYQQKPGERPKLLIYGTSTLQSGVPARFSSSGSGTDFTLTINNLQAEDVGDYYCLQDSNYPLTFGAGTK , thanks.
3.51

Kd lookup needed for Can-SL501-VH3 Y111L / Can-SL501-VL2 (antibody, V domains shown) VH: EVQLVESGGDLVKPGGSLRLSCVASGFTFSSYGMHWVRQAPGKELEWVAVISYDGSIKYYADAVKGRFTISRDNAKNTLYLQMNSLRAEDTAVYYCARTGEYSGYDTDPQLSWGQGTTVTVSS VL: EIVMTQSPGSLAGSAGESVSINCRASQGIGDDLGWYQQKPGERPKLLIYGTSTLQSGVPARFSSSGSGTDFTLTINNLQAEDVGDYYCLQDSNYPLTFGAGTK , thanks.
1.11

Kd lookup needed for Can-SL501-VH3 Y111I / Can-SL501-VL2 (antibody, V domains shown) VH: EVQLVESGGDLVKPGGSLRLSCVASGFTFSSYGMHWVRQAPGKELEWVAVISYDGSIKYYADAVKGRFTISRDNAKNTLYLQMNSLRAEDTAVYYCARTGEYSGYDTDPQISWGQGTTVTVSS VL: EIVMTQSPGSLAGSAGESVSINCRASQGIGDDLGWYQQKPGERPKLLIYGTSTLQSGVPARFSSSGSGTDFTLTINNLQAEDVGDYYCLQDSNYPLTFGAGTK , thanks.
0.562

Kd lookup needed for Can-SL501-VH3 S112E / Can-SL501-VL2 (antibody, V domains shown) VH: EVQLVESGGDLVKPGGSLRLSCVASGFTFSSYGMHWVRQAPGKELEWVAVISYDGSIKYYADAVKGRFTISRDNAKNTLYLQMNSLRAEDTAVYYCARTGEYSGYDTDPQYEWGQGTTVTVSS VL: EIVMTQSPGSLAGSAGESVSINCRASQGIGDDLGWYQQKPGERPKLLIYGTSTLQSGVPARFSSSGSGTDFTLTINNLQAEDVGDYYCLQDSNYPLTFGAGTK , thanks.
0.487
